Structures can show the parent of a compound that is named as a salt.
OBSERVED_PROPERTY: melting point

Observe how each entry below is paired with its result.
CC(C)Oc1cccc(S(=O)(=O)c2ccc3c(c2)C2(C)CCNCC2O3)c1 (centres unmarked) | 162 to 164 °C
O=S(=O)(c1cccc(OCC2CCCCO2)c1)c1ccc2c(c1)OC1CNCCC21 (centres unmarked) (as salt: HCl) | 192 to 194 °C
CC12CCNCC1Oc1ccc(S(=O)(=O)c3cccc(Cl)c3Cl)cc12 (centres unmarked) [Example 105] | 242 to 244 °C
Cc1cncc(Oc2cccc(S(=O)(=O)c3ccc4c(c3)OC3CNCCC43)c2)n1 (centres unmarked) | 128 to 130 °C
COc1cc(OCc2ccccc2)cc(S(=O)(=O)c2ccc3c(c2)OC2CNCCC32)c1 (centres unmarked) | 202 to 203 °C
COCCCOc1cccc(S(=O)(=O)c2ccc3c(c2)OC2CNCCC32)c1 (centres unmarked) (as salt: HCl) | 179 to 181 °C
COc1ccc(S(=O)(=O)c2ccc3c(c2)OC2CNCCC32C)cc1 (racemic) (as salt: HCl) | 283 to 284 °C
CC(=O)NCC1(C)NCCc2c1oc1cc(S(=O)(=O)c3cccc(F)c3)ccc21 (centres unmarked) (as salt: HCl) [Example 631] | 217 to 227 °C
CC(C)Oc1cccc(S(=O)(=O)c2ccc3c4c(oc3c2)C(C)(C)NCC4)c1 (as salt: HCl) | 243 to 245 °C
O=S(=O)(c1cccc(OCc2cnccn2)c1)c1ccc2c(c1)OC1CNCCC21 (centres unmarked) (as salt: HCl) | 244 to 245 °C

For CC12CCNCC1Oc1ccc(S(=O)(=O)c3ccccc3)cc12 (centres unmarked) (as salt: hydrochloride) , what is its reported melting point?
236 to 238 °C (dec.)

Where do these numbers come from? They come from patent US8765779B2.
